So I've got a bunch of compounds here, and I need their remaining activity at 1 µM values.
Molecular target: UniProt:P0C1S7
Sequence (P0C1S7 whole entry): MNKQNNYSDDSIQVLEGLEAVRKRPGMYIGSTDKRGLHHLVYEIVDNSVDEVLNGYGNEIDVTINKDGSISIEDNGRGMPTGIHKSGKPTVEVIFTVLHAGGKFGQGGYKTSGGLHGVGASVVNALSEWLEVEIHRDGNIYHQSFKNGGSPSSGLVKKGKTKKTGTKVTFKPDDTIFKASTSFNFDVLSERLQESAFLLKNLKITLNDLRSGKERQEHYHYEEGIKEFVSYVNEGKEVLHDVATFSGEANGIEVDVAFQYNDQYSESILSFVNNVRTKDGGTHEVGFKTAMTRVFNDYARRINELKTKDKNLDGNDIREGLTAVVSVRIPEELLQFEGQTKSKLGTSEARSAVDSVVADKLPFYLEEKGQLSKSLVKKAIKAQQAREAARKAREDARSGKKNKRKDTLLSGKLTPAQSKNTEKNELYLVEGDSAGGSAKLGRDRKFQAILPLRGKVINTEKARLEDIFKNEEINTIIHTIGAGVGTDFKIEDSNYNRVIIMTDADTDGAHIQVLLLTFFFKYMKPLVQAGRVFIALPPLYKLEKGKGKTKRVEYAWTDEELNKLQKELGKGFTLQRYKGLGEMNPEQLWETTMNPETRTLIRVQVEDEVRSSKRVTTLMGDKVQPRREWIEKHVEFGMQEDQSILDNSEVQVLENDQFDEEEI
Sequence (P0C1U9 whole entry partner): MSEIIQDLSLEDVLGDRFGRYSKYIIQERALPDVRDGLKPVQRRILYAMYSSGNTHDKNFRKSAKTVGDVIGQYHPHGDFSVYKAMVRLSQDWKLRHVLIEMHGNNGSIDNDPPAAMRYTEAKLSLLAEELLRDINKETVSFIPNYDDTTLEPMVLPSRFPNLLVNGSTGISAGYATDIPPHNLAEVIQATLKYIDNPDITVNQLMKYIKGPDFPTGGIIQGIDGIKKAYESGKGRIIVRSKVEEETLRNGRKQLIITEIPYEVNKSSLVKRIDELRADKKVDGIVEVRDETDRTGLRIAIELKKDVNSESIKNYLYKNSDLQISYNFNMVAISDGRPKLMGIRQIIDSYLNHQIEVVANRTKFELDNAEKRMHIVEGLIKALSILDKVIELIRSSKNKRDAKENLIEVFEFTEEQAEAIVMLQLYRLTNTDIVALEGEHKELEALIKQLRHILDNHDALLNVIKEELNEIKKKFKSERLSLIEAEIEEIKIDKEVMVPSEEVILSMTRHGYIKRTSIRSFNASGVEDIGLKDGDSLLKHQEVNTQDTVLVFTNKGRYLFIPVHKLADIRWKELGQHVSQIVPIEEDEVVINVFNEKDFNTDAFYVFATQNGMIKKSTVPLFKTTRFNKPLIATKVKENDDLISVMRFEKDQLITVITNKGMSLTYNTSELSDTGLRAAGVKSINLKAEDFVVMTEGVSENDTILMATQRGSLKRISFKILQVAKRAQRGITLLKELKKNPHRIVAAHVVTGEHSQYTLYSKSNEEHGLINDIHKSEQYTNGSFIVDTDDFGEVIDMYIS
Test: topoisomerase IV relaxation plate assay
Format: biochemical
Details: read-out: RA (residual activity) S. aureus topo IV
Note: unit % is implicit; provide only the numeric part.

Qu. Requested read-out: remaining activity at 1 µM. Entry: COC(=O)c1ccc(NC(=O)c2[nH]c(C)c(Cl)c2Cl)c(N2CCNCC2)c1.Cl [Compound 19a]
Ans. 95

Qu. Requested read-out: remaining activity at 1 µM. Entry: Cc1[nH]c(C(=O)Nc2ccc(C(=O)O)cc2N2CCNCC2)c(Cl)c1Cl.Cl [Compound 20a]
Ans. 92

Qu. Requested read-out: remaining activity at 1 µM. Entry: Cc1[nH]c(C(=O)Nc2ccc(C(=O)O)cc2N2CCN(C(=O)OC(C)(C)C)CC2)c(Cl)c1Cl [Compound 18a]
Ans. 21

Qu. Requested read-out: remaining activity at 1 µM. Entry: Cc1[nH]c(C(=O)Nc2ccc(C(=O)NCC(=O)O)cc2N2CCN(C(=O)OC(C)(C)C)CC2)c(Cl)c1Cl [Compound 8a]
Ans. 22

Qu. Requested read-out: remaining activity at 1 µM. Entry: Cc1[nH]c(C(=O)Nc2ccc(C(=O)O)cc2N2CCCC(CN)C2)c(Cl)c1Cl.Cl (centres unmarked) [Compound 20i]
Ans. 0

Provenance of the data: paper PMC11378028
